Biological target: human p38 kinase alpha (Homo sapiens, UniProt Q16539)
Construct: GST (N, cleaved yes); made in house; host or cells: E. coli DH10B
Sequence (Q16539 whole entry): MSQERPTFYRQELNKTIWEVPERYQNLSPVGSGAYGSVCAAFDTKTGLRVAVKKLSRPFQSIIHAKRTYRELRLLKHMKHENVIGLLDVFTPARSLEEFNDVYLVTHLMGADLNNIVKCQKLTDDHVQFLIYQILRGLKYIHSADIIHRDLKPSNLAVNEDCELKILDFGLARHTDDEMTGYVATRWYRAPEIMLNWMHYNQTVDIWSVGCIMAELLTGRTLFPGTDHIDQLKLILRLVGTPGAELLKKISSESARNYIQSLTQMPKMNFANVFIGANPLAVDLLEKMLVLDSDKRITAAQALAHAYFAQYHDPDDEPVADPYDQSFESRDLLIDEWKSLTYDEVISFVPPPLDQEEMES
Experiment: p38 kinase in vitro assay, phosphorylation of biotinylated PHAS-I with 32P-ATP
Type: biochemical
Conditions: @ 1.0 uM
measured property: P38 alpha kinase % inhib @ conc. (% @)

CC(C)NC(=O)NCCCc1[nH]nc(-c2ccc(F)cc2)c1-c1ccncc1 [Example B-1206]	81.0
CN(C(=O)NCCCc1[nH]nc(-c2ccc(F)cc2)c1-c1ccncc1)c1ccccc1 [Example B-1214]	76.0
O=S(=O)(NCCCc1[nH]nc(-c2ccc(F)cc2)c1-c1ccncc1)c1ccccc1F [Example B-1197]	77.0
CCCCS(=O)(=O)NCCCc1[nH]nc(-c2ccc(F)cc2)c1-c1ccncc1 [Example B-1199]	87.0
CC(C)(C)C(=O)NCCCc1[nH]nc(-c2ccc(F)cc2)c1-c1ccncc1 [Example B-1229]	87.0
CCS(=O)(=O)NCCCc1[nH]nc(-c2ccc(F)cc2)c1-c1ccncc1 [Example B-1200]	95.0
O=C(NCCCc1[nH]nc(-c2ccc(F)cc2)c1-c1ccncc1)N1CCCC1 [Example B-1209]	86.0
NC(=O)NCCCc1[nH]nc(-c2ccc(F)cc2)c1-c1ccncc1 [Example B-1207]	90.0
O=C(NCCCc1[nH]nc(-c2ccc(F)cc2)c1-c1ccncc1)NCCc1ccccc1 [Example B-1221]	82.0

###

Target: human p38 kinase alpha (Homo sapiens, UniProt Q16539)
Construct: GST (N, cleaved yes); made in house; host or cells: E. coli DH10B
Test: p38 kinase in vitro assay, phosphorylation of biotinylated PHAS-I with 32P-ATP
Type: biochemical
Conditions: in vitro P38-alpha kinase inhibition; read-out: P38 alpha kinase IC50
measured property: IC50 (nM)

Below, 5 molecules whose answers are already recorded.
CC(NS(=O)(=O)c1cccc2cnccc12)c1[nH]nc(-c2ccc(F)cc2)c1-c1ccncc1 (stereo not shown) [Example B-0490]	910
Cc1c(Cl)cccc1S(=O)(=O)NC(C)c1[nH]nc(-c2ccc(F)cc2)c1-c1ccncc1 (stereo not shown)	85
O=C(NC(Cc1ccccc1)c1[nH]nc(-c2ccc(F)cc2)c1-c1ccncc1)c1cccnc1 (stereo not shown)	1440
O=C(NC(Cc1ccccc1)c1[nH]nc(-c2ccc(F)cc2)c1-c1ccncc1)c1cccc(Br)c1 (stereo not shown) [Example B-0806]	3280
CC(NS(=O)(=O)c1cc(Cl)cc(Cl)c1)c1[nH]nc(-c2ccc(F)cc2)c1-c1ccncc1 (stereo not shown)	580

A = CC(NS(=O)(=O)c1c(Cl)cccc1Cl)c1[nH]nc(-c2ccc(F)cc2)c1-c1ccncc1 (stereo not shown)
B = CC(NC(=O)c1cc(F)c(F)cc1F)c1[nH]nc(-c2ccc(F)cc2)c1-c1ccncc1 (stereo not shown)
C = COc1ccc(Br)cc1S(=O)(=O)NCCc1[nH]nc(-c2ccc(F)cc2)c1-c1ccncc1
D = O=C(NC(Cc1ccccc1)c1[nH]nc(-c2ccc(F)cc2)c1-c1ccncc1)C1CCCC1 (stereo not shown) [Example B-0852]
Enquiry: Ascending sort, IC50. Submit the labels in the order that the ranking request calls for.
Return: C, A, D, B

###

Biological target: human p38 kinase alpha (Homo sapiens)
Construct: GST (N, cleaved yes); made in house; host or cells: E. coli DH10B
Assay: p38 kinase in vitro assay, phosphorylation of biotinylated PHAS-I with 32P-ATP
Format: biochemical
Conditions: in vitro P38-alpha kinase; read-out: P38 alpha kinase IC50
pIC50: −log10 of the molar value.
measured property: pIC50

Reference set (4 entries):
O=S(=O)(NCCCc1[nH]nc(-c2ccc(F)cc2)c1-c1ccncc1)c1ccc(-c2ccccc2)cc1	6.82
Cc1cccc(C(=O)N2CCC(c3[nH]nc(-c4ccc(F)cc4)c3-c3ccncc3)CC2)c1	5.83
Cc1c(-c2ccncc2)c(-c2ccc(F)cc2)nn1CC(=O)NCCCCc1ccccc1	7.15
O=C(NCc1[nH]nc(-c2ccc(F)cc2)c1-c1ccncc1)c1c(Cl)cccc1Cl	6.17

P = CCCCS(=O)(=O)N1CCC(c2[nH]nc(-c3ccc(F)cc3)c2-c2ccncc2)CC1
Q = O=S(=O)(NCCCc1[nH]nc(-c2ccc(F)cc2)c1-c1ccncc1)c1ccc(-c2ccccn2)s1
Enquiry: Of P and Q , which carries the smaller reported pIC50 figure? Mark your selection by writing its label.
Return: P
(P: 6.12, Q: 6.82)

###

Target: human p38 kinase alpha (Homo sapiens, UniProt Q16539)
Construct: GST (N, cleaved yes); made in house; host or cells: E. coli DH10B
Experiment: p38 kinase in vitro assay, phosphorylation of biotinylated PHAS-I with 32P-ATP
Format: biochemical
Settings: in vitro P38-alpha kinase inhibition; read-out: P38 alpha kinase IC50
pIC50: −log10 of the molar value.
The entries below come with measured pIC50 values attached.

Enquiry: Look up pIC50 for this compound: CC(NS(=O)(=O)c1ccc(C(F)(F)F)cc1)c1[nH]nc(-c2ccc(F)cc2)c1-c1ccncc1 (stereo not drawn)
Return: > 7.00

Enquiry: Item under review: O=S(=O)(NCCc1[nH]nc(-c2ccc(F)cc2)c1-c1ccncc1)c1cc(Cl)ccc1Cl . Reported pIC50?
Return: > 7.00

Enquiry: Recorded pIC50 of O=S(=O)(NCCc1[nH]nc(-c2ccc(F)cc2)c1-c1ccncc1)c1cccc(Cl)c1Cl , please.
Return: > 7.00

###

Molecular target: human p38 kinase alpha (Homo sapiens)
Construct: GST (N, cleaved yes); made in house; host or cells: E. coli DH10B
Experiment: p38 kinase in vitro assay, phosphorylation of biotinylated PHAS-I with 32P-ATP
Format: biochemical
Settings: @ 1.0 uM
Method: The coding region of the human p38a cDNA was obtained by PCR-amplification from RNA isolated from the human monocyte cell line THP.1. […] Random primer, dNTP's and Superscript™ reagents were all purchased from Life-Technologies, Gaithersburg, Mass. The reaction was incubated at 42° C. for 1 hour. […]
measured property: P38 alpha kinase % inhib @ conc. (uM) (% @)

Cc1ccc(C(=O)NCCc2[nH]nc(-c3ccc(F)cc3)c2-c2ccncc2)cc1 [Example B-1002]	70.0
COc1cccc(C(=O)NCCCc2[nH]nc(-c3ccc(F)cc3)c2-c2ccncc2)c1 [Example B-1185]	71.0
COc1ccc(NC(=O)NCCc2[nH]nc(-c3ccc(F)cc3)c2-c2ccncc2)cc1 [Example B-1047]	72.0
O=C(NCCc1[nH]nc(-c2ccc(F)cc2)c1-c1ccncc1)c1ccccn1 [Example B-1007]	52.0
CCOC(=O)NCCc1[nH]nc(-c2ccc(F)cc2)c1-c1ccncc1 [Example B-1054]	79.0
CC(=O)NCCc1[nH]nc(-c2ccc(F)cc2)c1-c1ccncc1 [Example B-0987]	78.0
O=S(=O)(NCCCc1[nH]nc(-c2ccc(F)cc2)c1-c1ccncc1)C(F)(F)F [Example B-1196]	74.0
CC(C)S(=O)(=O)NCCCc1[nH]nc(-c2ccc(F)cc2)c1-c1ccncc1 [Example B-1192]	84.0
O=S(=O)(NCCc1[nH]nc(-c2ccc(F)cc2)c1-c1ccncc1)c1cccs1 [Example B-1026]	87.0
CCNC(=O)NCCc1[nH]nc(-c2ccc(F)cc2)c1-c1ccncc1 [Example B-1049]	67.0
O=S(=O)(C=Cc1ccccc1)NCCCc1[nH]nc(-c2ccc(F)cc2)c1-c1ccncc1 [Example B-1193]	69.0

###

Molecular target: human p38 kinase alpha (Homo sapiens)
Construct: GST (N, cleaved yes); made in house; host or cells: E. coli DH10B
Assay: p38 kinase in vitro assay, phosphorylation of biotinylated PHAS-I with 32P-ATP
Type: biochemical
Conditions: in vitro P38-alpha kinase inhibition; read-out: P38 alpha kinase IC50
Method: The coding region of the human p38a cDNA was obtained by PCR-amplification from RNA isolated from the human monocyte cell line THP.1. […] Random primer, dNTP's and Superscript™ reagents were all purchased from Life-Technologies, Gaithersburg, Mass. The reaction was incubated at 42° C. for 1 hour. […]
pIC50: −log10 of the molar value.
measured property: pIC50

Would you please look over these solved cases?
C=CCOC(=O)NC(Cc1ccccc1)c1[nH]nc(-c2ccc(F)cc2)c1-c1ccncc1 (stereo not drawn) [Example B-0801]	6.17
Cc1ccccc1S(=O)(=O)NCCc1[nH]nc(-c2ccc(F)cc2)c1-c1ccncc1	> 7.00

Next, consider the following molecule.
Enquiry: State the recorded pIC50 for this entry: O=S(=O)(NCCc1[nH]nc(-c2ccc(F)cc2)c1-c1ccncc1)c1ccc(F)cc1Cl
Return: > 7.00

###

Biological target: human p38 kinase alpha (Homo sapiens)
Construct: GST (N, cleaved yes); made in house; host or cells: E. coli DH10B
Assay: p38 kinase in vitro assay, phosphorylation of biotinylated PHAS-I with 32P-ATP
Assay type: biochemical
Conditions: in vitro P38-alpha kinase inhibition; read-out: P38 alpha kinase IC50
measured property: IC50 (nM)

Look over these answered cases.
CC(NC(=O)c1cccc(Cl)c1Cl)c1[nH]nc(-c2ccc(F)cc2)c1-c1ccncc1 (stereo not shown)	1960
CC(NC(=O)C1CCCN1)c1[nH]nc(-c2ccc(F)cc2)c1-c1ccncc1 (stereo not shown) [Example B-0604]	300
Cc1ccc(S(=O)(=O)NC(Cc2ccccc2)C(=O)NC(C)c2[nH]nc(-c3ccc(F)cc3)c2-c2ccncc2)cc1 (stereo not shown)	2570
CC(NC(=O)Nc1ccccc1O)c1[nH]nc(-c2ccc(F)cc2)c1-c1ccncc1 (stereo not shown)	6840
N#Cc1ccc(S(=O)(=O)NCCc2[nH]nc(-c3ccc(F)cc3)c2-c2ccncc2)cc1	57

1 = CCCOC(=O)NC(C)c1[nH]nc(-c2ccc(F)cc2)c1-c1ccncc1 (stereo not shown)
2 = CC(NC(=O)c1c(F)ccc(F)c1F)c1[nH]nc(-c2ccc(F)cc2)c1-c1ccncc1 (stereo not shown)
3 = CC(NS(=O)(=O)c1ccccc1F)c1[nH]nc(-c2ccc(F)cc2)c1-c1ccncc1 (stereo not shown)
Enquiry: Put the entries in order of IC50, starting with the largest number. Write the labels, ordered according to the request.
Return: 1, 2, 3
